Source of measurements: patent US20190330275A1

Readings of α3β4 IC50 ratio for the listed compounds
- TARGET_OR_TEST_SYSTEM: rat α3β4 nAChR (Rattus norvegicus, UniProt P04757+P12392)
- Sequence (P04757 26-499 limits assumed): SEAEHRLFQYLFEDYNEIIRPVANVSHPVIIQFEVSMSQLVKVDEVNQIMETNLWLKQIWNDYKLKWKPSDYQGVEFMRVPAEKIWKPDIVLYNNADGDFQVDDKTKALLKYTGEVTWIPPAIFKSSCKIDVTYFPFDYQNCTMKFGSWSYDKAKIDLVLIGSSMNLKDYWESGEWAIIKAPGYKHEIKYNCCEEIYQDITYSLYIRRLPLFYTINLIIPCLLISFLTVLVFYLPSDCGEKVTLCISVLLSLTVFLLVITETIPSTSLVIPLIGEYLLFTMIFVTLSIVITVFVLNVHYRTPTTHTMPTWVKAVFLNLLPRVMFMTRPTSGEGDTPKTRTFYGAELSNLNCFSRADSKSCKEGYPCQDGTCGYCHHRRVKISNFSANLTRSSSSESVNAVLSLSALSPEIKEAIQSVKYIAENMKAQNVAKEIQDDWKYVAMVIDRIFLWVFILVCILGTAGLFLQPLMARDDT
- Sequence (P12392 21-495 limits assumed): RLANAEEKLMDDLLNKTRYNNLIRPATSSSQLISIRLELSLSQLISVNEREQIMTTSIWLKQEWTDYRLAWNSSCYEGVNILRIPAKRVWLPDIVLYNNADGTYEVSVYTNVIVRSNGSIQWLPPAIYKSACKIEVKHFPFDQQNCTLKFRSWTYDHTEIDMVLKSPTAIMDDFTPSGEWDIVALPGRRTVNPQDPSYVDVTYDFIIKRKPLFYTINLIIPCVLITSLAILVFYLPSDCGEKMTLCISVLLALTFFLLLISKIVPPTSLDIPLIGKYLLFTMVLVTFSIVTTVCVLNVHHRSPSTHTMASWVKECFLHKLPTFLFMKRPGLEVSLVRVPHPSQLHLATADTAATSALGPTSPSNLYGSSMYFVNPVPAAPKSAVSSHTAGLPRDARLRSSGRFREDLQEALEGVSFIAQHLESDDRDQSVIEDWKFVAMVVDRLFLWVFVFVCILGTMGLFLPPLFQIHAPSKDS
- MEASUREMENT_PROTOCOL: cell-based
Peptide text beside a SMILES is read from it.
EXPERIMENTAL_READOUT: α3β4 IC50 ratio

COMPOUND	ENDPOINT_RESULT
CSCC[C@@H]1NC(=O)[C@H](C)NC(=O)[C@H](CO)NC(=O)[C@@H]2CSSC[C@H](NC(=O)CN)C(=O)N[C@@H](CSSC[C@@H](C(N)=O)NC(=O)[C@H](CC(=O)O)NC(=O)[C@@H]3CCCN3C(=O)[C@H](CO)NC1=O)C(=O)N[C@@H](CO)C(=O)N[C@@H](Cc1c[nH]cn1)C(=O)N1CCC[C@H]1C(=O)N[C@@H](C(C)C)C(=O)N2 [TxID[I14D]] (HELM PEPTIDE1{G.C.C.S.H.P.V.C.S.A.M.S.P.D.C.[am]}$PEPTIDE1,PEPTIDE1,2:R3-8:R3|PEPTIDE1,PEPTIDE1,3:R3-15:R3$$$V2.0)	2.7
CC[C@H](C)[C@@H]1NC(=O)[C@@H]2CCCN2C(=O)[C@H](CO)NC(=O)[C@H](CCSC)NC(=O)[C@H](C)NC(=O)[C@H](Cc2c[nH]cn2)NC(=O)[C@@H]2CSSC[C@H](NC(=O)CN)C(=O)N[C@@H](CSSC[C@@H](C(N)=O)NC1=O)C(=O)N[C@@H](CO)C(=O)N[C@@H](Cc1c[nH]cn1)C(=O)N1CCC[C@H]1C(=O)N[C@@H](C(C)C)C(=O)N2 [TxID[S9H]] (HELM PEPTIDE1{G.C.C.S.H.P.V.C.H.A.M.S.P.I.C.[am]}$PEPTIDE1,PEPTIDE1,2:R3-8:R3|PEPTIDE1,PEPTIDE1,3:R3-15:R3$$$V2.0)	0.7

----------
- TARGET_OR_TEST_SYSTEM: rat α6/α3β4 nAChR (Rattus norvegicus, UniProt P04757+P12392+P43143)
- Sequence (P04757 whole entry, looked up): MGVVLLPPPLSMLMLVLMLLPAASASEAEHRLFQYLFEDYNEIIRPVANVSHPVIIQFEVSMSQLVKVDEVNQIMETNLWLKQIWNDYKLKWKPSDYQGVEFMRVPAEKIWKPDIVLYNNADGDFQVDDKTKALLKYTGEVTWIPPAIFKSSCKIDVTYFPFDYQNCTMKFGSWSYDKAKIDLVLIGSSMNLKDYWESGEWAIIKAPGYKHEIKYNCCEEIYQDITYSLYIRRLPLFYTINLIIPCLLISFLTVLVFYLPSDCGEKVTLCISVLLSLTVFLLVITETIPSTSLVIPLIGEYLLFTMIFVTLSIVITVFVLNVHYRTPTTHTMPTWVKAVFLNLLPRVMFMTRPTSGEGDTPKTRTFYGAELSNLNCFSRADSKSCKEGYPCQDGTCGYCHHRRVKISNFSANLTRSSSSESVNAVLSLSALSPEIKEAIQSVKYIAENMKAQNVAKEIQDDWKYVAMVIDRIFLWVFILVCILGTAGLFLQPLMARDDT
- Sequence (P12392 whole entry, looked up): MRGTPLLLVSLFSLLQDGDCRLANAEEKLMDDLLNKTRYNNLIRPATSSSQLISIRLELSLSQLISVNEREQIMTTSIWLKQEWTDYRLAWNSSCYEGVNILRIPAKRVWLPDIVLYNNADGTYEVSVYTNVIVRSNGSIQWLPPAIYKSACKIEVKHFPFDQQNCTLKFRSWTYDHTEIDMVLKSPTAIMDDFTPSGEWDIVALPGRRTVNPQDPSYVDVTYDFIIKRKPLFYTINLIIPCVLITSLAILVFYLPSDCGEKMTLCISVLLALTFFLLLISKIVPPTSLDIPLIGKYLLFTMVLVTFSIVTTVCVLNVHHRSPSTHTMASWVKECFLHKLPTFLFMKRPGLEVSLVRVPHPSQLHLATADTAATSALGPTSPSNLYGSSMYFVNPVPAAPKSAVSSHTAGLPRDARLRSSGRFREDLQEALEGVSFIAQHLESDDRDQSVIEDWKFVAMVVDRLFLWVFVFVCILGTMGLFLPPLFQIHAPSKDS
- Sequence (P43143 whole entry, looked up): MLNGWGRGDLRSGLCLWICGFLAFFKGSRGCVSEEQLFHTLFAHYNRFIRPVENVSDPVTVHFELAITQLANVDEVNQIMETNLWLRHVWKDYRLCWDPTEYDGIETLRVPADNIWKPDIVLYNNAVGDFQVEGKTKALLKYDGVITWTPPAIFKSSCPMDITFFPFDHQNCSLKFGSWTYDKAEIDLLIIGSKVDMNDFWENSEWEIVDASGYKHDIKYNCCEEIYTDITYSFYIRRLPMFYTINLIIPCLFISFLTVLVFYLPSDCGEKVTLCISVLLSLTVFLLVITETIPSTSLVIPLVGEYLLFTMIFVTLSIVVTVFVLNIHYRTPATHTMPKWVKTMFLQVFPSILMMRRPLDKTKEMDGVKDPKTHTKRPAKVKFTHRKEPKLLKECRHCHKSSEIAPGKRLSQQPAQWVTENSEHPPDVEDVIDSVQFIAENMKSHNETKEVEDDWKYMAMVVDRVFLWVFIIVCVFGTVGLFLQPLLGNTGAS
- MEASUREMENT_PROTOCOL: cell-based
Peptide text beside a SMILES is read from it.
EXPERIMENTAL_READOUT: α6/α3β4 IC50 ratio

COMPOUND	TARGET_OR_TEST_SYSTEM	ENDPOINT_RESULT
CSCC[C@@H]1NC(=O)[C@H](C)NC(=O)[C@H](CO)NC(=O)[C@@H]2CSSC[C@H](NC(=O)CN)C(=O)N[C@@H](CSSC[C@@H](C(N)=O)NC(=O)[C@H](CCCNC(=N)N)NC(=O)[C@@H]3CCCN3C(=O)[C@H](CO)NC1=O)C(=O)N[C@@H](CO)C(=O)N[C@@H](Cc1c[nH]cn1)C(=O)N1CCC[C@H]1C(=O)N[C@@H](C(C)C)C(=O)N2 [TxID[I14R]] (HELM PEPTIDE1{G.C.C.S.H.P.V.C.S.A.M.S.P.R.C.[am]}$PEPTIDE1,PEPTIDE1,2:R3-8:R3|PEPTIDE1,PEPTIDE1,3:R3-15:R3$$$V2.0)	rat α6/α3β4 nAChR (Rattus norvegicus, UniProt P04757+P12392+P43143)	2.0
CC[C@H](C)[C@@H]1NC(=O)[C@@H]2CCCN2C(=O)[C@H](CO)NC(=O)[C@H](CCSC)NC(=O)[C@H](C)NC(=O)[C@H](CO)NC(=O)[C@@H]2CSSC[C@H](NC(=O)CN)C(=O)N[C@@H](CSSC[C@@H](C(N)=O)NC1=O)C(=O)N[C@@H](C)C(=O)N[C@@H](Cc1c[nH]cn1)C(=O)N1CCC[C@H]1C(=O)N[C@@H](C(C)C)C(=O)N2 [TxID[S4A]] (HELM PEPTIDE1{G.C.C.A.H.P.V.C.S.A.M.S.P.I.C.[am]}$PEPTIDE1,PEPTIDE1,2:R3-8:R3|PEPTIDE1,PEPTIDE1,3:R3-15:R3$$$V2.0)	rat α6/α3β4 nAChR (Rattus norvegicus, UniProt P04757+P12392+P43143)	1.9
CC[C@H](C)[C@@H]1NC(=O)[C@@H]2CCCN2C(=O)[C@H](CO)NC(=O)[C@H](CCSC)NC(=O)[C@H](C)NC(=O)[C@H](Cc2c[nH]cn2)NC(=O)[C@@H]2CSSC[C@H](NC(=O)CN)C(=O)N[C@@H](CSSC[C@@H](C(N)=O)NC1=O)C(=O)N[C@@H](CO)C(=O)N[C@@H](Cc1c[nH]cn1)C(=O)N1CCC[C@H]1C(=O)N[C@@H](C(C)C)C(=O)N2 [TxID[S9H]] (HELM PEPTIDE1{G.C.C.S.H.P.V.C.H.A.M.S.P.I.C.[am]}$PEPTIDE1,PEPTIDE1,2:R3-8:R3|PEPTIDE1,PEPTIDE1,3:R3-15:R3$$$V2.0)	rat α6/α3β4 nAChR (Rattus norvegicus, UniProt P04757+P12392+P43143)	0.4
CC[C@H](C)[C@@H]1NC(=O)[C@@H]2CCCN2C(=O)[C@H](CO)NC(=O)[C@H](CC(C)C)NC(=O)[C@H](C)NC(=O)[C@H](C)NC(=O)[C@@H]2CSSC[C@H](NC(=O)CN)C(=O)N[C@@H](CSSC[C@@H](C(N)=O)NC1=O)C(=O)N[C@@H](CO)C(=O)N[C@@H](Cc1c[nH]cn1)C(=O)N1CCC[C@H]1C(=O)N[C@@H](C(C)C)C(=O)N2 [TxID[S9A, M11I]] (HELM PEPTIDE1{G.C.C.S.H.P.V.C.A.A.L.S.P.I.C.[am]}$PEPTIDE1,PEPTIDE1,2:R3-8:R3|PEPTIDE1,PEPTIDE1,3:R3-15:R3$$$V2.0)	rat α6/α3β4 nAChR (Rattus norvegicus, UniProt P04757+P12392+P43143)	3.0
